Sourced from patent US20250250357A1

Entries and their OD450 at 0.0001 nM values follow.
# study-target: T1, human MSLN-R3-3 polypeptide (human)
# T1 construct: also called human MSLN-R3-3 protein; hMSLN-R3-3
# test-details: ELISA, coated MSLN-R3-3;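 note: chimeric antibodies in serial dilution bound to plate-coated antigen for 2 h at 37 °C, with a negative control antibody alongside, and TMB colour development stopped with HCl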
State just the number; it will be interpreted in OD450.

Recorded results for 3 binders are shown here.
S009-F1.62.9 (antibody, human IgG1, kappa, V domains shown, Human-murine chimeric antibody, human IgG1/kappa constant regions) VH: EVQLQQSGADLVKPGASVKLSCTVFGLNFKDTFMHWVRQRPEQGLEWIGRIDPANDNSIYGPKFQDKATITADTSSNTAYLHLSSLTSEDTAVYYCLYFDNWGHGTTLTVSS VL: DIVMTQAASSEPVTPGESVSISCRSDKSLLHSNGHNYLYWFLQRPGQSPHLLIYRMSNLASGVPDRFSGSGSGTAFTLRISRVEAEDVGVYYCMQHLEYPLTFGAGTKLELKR	0.06
S009-F1.25.10 (antibody, human IgG1, kappa, V domains shown, Human-murine chimeric antibody, human IgG1/kappa constant regions) VH: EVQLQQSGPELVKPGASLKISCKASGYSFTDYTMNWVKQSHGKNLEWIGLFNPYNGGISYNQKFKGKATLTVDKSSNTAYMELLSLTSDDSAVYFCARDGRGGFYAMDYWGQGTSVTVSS VL: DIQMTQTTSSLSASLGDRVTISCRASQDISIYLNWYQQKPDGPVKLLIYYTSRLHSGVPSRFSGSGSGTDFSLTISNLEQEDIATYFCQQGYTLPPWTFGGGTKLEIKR	0.07
S009-F1.56.1 (antibody, human IgG1, kappa, V domains shown, Human-murine chimeric antibody, human IgG1/kappa constant regions) VH: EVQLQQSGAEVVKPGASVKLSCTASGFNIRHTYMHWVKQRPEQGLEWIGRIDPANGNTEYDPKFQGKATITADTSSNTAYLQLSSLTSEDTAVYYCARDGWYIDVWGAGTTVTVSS VL: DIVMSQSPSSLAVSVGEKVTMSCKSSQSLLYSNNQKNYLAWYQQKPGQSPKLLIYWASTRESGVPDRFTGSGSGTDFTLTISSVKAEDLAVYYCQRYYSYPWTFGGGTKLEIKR	0.07

Lab book: OD450 at 0.0001 nM of S009-F1.35.24 (antibody, human IgG1, kappa, V domains shown, Human-murine chimeric antibody, human IgG1/kappa constant regions) VH: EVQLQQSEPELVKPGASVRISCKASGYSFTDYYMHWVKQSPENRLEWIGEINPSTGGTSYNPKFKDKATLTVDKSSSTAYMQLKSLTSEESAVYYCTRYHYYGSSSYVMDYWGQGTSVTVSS VL: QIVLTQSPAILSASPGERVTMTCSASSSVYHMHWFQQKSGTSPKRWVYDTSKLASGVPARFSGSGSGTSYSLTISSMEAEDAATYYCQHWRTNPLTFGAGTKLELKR noted as 0.07

Lab book: OD450 at 0.0001 nM of S009-F1.57.1 (antibody, human IgG1, kappa, V domains shown, Human-murine chimeric antibody, human IgG1/kappa constant regions) VH: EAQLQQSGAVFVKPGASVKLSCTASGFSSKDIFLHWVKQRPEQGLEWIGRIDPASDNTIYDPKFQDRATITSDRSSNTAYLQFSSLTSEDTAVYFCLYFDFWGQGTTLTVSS VL: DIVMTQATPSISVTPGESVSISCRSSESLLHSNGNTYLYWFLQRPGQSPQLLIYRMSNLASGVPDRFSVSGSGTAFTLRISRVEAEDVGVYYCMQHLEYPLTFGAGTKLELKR noted as 0.06

Lab book: OD450 at 0.0001 nM of S009-F1.59.1 (antibody, human IgG1, kappa, V domains shown, Human-murine chimeric antibody, human IgG1/kappa constant regions) VH: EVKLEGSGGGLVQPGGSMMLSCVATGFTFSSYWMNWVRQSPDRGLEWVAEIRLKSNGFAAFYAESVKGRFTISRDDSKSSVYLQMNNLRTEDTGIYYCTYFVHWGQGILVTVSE VL: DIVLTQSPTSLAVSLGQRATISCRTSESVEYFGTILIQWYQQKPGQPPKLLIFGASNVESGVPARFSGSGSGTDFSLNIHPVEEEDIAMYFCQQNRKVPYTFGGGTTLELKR noted as 0.06

Lab book: OD450 at 0.0001 nM of S009-F1.2.12 (antibody, human IgG1, kappa, V domains shown) VH: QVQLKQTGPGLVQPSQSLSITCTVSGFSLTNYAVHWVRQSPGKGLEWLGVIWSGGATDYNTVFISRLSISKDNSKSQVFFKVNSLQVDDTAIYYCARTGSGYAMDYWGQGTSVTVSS VL: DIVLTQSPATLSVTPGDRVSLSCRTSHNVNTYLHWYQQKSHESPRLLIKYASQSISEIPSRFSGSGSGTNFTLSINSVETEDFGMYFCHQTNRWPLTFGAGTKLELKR noted as 0.06
